The origin of these recorded values is the supplement of paper PMC10065799.

Hi there, I'd appreciate the recorded phosphorylation enrichment for every entry that follows.
measured_target: EPHB2 (UniProt P29323)
Sequence (P29323 whole entry, looked up): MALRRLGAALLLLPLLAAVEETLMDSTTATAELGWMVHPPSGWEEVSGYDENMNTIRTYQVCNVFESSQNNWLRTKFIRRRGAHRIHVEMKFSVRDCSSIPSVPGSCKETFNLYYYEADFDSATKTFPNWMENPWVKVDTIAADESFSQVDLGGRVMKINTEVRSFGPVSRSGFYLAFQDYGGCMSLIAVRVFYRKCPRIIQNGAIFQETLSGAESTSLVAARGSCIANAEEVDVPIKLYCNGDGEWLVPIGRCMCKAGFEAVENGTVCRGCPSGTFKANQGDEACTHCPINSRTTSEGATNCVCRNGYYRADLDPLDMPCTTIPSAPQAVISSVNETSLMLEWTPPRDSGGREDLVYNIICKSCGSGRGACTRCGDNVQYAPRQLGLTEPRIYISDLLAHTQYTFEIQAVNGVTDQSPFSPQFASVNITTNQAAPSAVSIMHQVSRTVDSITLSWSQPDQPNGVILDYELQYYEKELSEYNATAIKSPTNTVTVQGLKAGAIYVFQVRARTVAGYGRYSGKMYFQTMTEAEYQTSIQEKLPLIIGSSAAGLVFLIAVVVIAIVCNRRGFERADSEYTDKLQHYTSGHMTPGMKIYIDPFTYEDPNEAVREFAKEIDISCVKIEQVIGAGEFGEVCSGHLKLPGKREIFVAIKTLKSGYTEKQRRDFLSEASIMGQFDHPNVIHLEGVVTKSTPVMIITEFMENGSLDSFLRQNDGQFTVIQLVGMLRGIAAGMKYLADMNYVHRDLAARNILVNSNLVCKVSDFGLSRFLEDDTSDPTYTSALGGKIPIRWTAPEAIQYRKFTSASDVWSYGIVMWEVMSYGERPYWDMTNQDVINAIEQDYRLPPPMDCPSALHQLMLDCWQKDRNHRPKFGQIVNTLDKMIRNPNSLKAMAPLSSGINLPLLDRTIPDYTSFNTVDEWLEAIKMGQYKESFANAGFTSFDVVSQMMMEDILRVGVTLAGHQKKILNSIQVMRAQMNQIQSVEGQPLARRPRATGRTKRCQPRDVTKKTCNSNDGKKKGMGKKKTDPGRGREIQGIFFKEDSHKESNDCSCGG
assay_notes: phosphorylation enrichment, bacterial display (enrichment ratio); higher = better substrate or ligand; peptides without Tyr show the background;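 also: 11-residue human phosphosite peptides and single-mutation variants displayed on the E. coli surface, counted by deep sequencing, each peptide's frequency after selection divided by its frequency in the unselected input library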;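 also: frequency after pTyr selection over input frequency; kinase dosed for 20-30% of maximal phosphorylation in three min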

stdin: Using the record for ANKNVYEVEPT [MEGF10_Y1075_R1072K] , report its phosphorylation enrichment.
stdout: 0.492

stdin: How about this sequence: HRNGMYGLHQD [SGSH_Y89_Q85R]
stdout: 0.51

stdin: How about this sequence: DPEGAYTTRGG [EPHA3_Y779_A777G]
stdout: 0.501

stdin: How about this sequence: INNIDYYKKTT [FGFR2_Y656]
stdout: 0.506

stdin: How about this sequence: CTTIHKNYMCN [TP53_Y234_Y234K]
stdout: 0.503

* * *

measured_target: FGFR3 (UniProt P22607)
Sequence (P22607 whole entry, looked up): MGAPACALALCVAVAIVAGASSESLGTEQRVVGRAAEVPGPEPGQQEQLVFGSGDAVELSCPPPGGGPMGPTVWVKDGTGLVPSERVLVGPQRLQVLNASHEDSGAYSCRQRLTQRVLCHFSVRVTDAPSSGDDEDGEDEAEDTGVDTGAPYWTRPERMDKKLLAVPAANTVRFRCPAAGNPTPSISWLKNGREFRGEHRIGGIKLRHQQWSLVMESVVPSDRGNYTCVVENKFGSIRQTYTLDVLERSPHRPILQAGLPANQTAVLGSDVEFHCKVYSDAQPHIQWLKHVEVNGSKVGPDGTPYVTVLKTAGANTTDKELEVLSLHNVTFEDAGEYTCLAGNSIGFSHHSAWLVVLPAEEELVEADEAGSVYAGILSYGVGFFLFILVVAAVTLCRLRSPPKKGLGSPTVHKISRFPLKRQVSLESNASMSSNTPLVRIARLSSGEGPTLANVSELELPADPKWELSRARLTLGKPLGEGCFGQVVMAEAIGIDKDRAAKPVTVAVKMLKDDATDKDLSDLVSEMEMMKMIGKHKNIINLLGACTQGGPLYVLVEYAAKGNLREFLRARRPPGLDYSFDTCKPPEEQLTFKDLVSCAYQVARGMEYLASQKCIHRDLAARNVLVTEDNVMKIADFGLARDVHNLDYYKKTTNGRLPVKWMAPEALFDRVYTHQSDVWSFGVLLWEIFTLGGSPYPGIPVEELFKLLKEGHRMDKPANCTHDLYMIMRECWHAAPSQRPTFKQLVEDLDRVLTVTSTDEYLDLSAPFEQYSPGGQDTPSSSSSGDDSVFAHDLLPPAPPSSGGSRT
assay_notes: phosphorylation enrichment, bacterial display (enrichment ratio); higher = better substrate or ligand; peptides without Tyr show the background
Hi there, I'd appreciate the recorded phosphorylation enrichment for every entry that follows.
Answer as a number with no unit attached.

stdin: Using the record for AAFNKYDQERF [CDC73_Y293_R292K_YF] , report its phosphorylation enrichment.
stdout: 0.531

stdin: How about this sequence: GYQPEYGQPAG [SYP_Y278_D277E]
stdout: 0.659

stdin: How about this sequence: VGNAAYQAGSL [STK36_Y1181_P1185S]
stdout: 0.446

stdin: How about this sequence: ALKKPYGVLYK [RPF2_Y59]
stdout: 0.516

stdin: How about this sequence: SAEEDYIADAK [KCNT1_Y876_M877I]
stdout: 0.797

stdin: How about this sequence: QRCFVYFFSFL [PTEN_Y176_R173C_YF]
stdout: 1.16

stdin: How about this sequence: GTFEDYVEGLR [MYL6_Y89_YF]
stdout: 0.685

stdin: How about this sequence: RHAASYSSDSE [REPS1_Y116]
stdout: 0.611

stdin: How about this sequence: KVALVYGQMNQ [ATP5F1B_Y269_E274Q]
stdout: 0.634

stdin: How about this sequence: TEVRRYVLPLN [RPE65_Y368_P363T]
stdout: 0.785

stdin: How about this sequence: AATTAYSKPKR [MAP3K7_Y405]
stdout: 0.37

stdin: How about this sequence: REHTVYGEPRK [MAGEA4_Y240]
stdout: 0.684

stdin: How about this sequence: DIRAQYDELAR [KRT18_Y256]
stdout: 0.592

stdin: How about this sequence: LGSVVYAQSKE [KCNQ2_Y226_H228Q]
stdout: 1.39

stdin: How about this sequence: SYNNKYGMVAQ [APOB_Y276_K273N]
stdout: 0.471

stdin: How about this sequence: VRHRRYKHTHE [CTCF_Y343]
stdout: 0.603

stdin: How about this sequence: FPLELYERVRM [PRKCG_Y312_YF]
stdout: 0.932

* * *

measured_target: MERTK (UniProt Q12866)
Sequence (Q12866 whole entry, looked up): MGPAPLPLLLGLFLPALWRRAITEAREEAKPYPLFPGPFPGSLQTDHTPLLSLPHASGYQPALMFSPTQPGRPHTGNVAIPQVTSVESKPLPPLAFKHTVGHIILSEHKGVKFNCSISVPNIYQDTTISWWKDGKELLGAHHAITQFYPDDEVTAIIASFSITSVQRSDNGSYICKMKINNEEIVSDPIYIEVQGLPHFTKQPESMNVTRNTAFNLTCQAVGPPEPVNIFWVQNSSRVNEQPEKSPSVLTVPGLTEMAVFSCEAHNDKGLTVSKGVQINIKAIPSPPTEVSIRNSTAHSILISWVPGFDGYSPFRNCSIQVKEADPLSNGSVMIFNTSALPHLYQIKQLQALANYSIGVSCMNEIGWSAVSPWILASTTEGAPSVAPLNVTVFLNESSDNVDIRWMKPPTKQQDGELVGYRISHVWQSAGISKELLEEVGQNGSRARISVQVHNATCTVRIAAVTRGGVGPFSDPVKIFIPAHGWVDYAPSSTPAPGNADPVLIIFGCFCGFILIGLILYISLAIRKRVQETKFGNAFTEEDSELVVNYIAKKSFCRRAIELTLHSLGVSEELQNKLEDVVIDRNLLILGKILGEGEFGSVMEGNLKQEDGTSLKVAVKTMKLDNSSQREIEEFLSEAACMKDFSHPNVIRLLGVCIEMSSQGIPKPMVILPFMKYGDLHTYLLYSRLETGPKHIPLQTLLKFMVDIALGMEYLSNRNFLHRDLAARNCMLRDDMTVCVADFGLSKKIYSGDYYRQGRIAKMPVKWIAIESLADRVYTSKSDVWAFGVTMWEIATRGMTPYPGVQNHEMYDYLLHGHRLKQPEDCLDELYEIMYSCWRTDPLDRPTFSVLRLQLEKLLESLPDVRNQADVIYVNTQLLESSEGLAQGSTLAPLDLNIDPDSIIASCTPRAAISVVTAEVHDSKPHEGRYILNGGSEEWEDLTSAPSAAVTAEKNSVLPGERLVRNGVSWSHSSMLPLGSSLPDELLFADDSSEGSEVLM
assay_notes: phosphorylation enrichment, bacterial display (enrichment ratio); higher = better substrate or ligand; peptides without Tyr show the background
Hi there, I'd appreciate the recorded phosphorylation enrichment for every entry that follows.
Answer as a number with no unit attached.

stdin: Using the record for NPEACYQRLKK [TK2_Y190_T188A] , report its phosphorylation enrichment.
stdout: 0.484

stdin: How about this sequence: TSYSGYRCHRH [NKAPL_Y94_Y96C]
stdout: 0.509

stdin: How about this sequence: DPGVSYRTREE [PDHA1_Y301]
stdout: 0.378

stdin: How about this sequence: FLAVGYHKLHI [IDS_Y225_P228L]
stdout: 0.471

stdin: How about this sequence: ELTSVYDSRAR [SENP1_Y349]
stdout: 0.52

stdin: How about this sequence: RNVYYYSYLLK [PTEN_Y178_Y174N]
stdout: 11.5

stdin: How about this sequence: PMQMPYDSRWE [PDGFRA_Y582_L580M]
stdout: 0.728

stdin: How about this sequence: FQEKGYNKELR [CHRND_Y38]
stdout: 0.382

stdin: How about this sequence: YSTPPYLLEAA [BRIP1_Y921_S919P]
stdout: 3.63

stdin: How about this sequence: KRFAFYRDSPR [FOXE3_Y108_E103K]
stdout: 0.437

stdin: How about this sequence: NLNGKYYKPRA [ANGPTL3_Y417_N418Y]
stdout: 0.304

stdin: How about this sequence: VRFMADTDETF [F8_Y450_Y450D]
stdout: 0.451

stdin: How about this sequence: KDFTKYVAFIE [KDM4B_Y31_N29T_YF]
stdout: 0.481

stdin: How about this sequence: NHRNQYQALKT [CLSPN_Y887_P892T]
stdout: 0.4

stdin: How about this sequence: VCHELYNTIRD [PBRM1_Y54]
stdout: 0.448

stdin: How about this sequence: IRTIDYRFTVC [IDS_Y497_W502C_YF]
stdout: 0.396

stdin: How about this sequence: SFGMVYEGNAR [INSR_Y1038]
stdout: 0.323

stdin: How about this sequence: VGSEDYGWDLT [SPTAN1_Y1792_R1794W]
stdout: 0.36

stdin: How about this sequence: PGVDIYVSPNM [PADI3_Y51_I52V]
stdout: 0.629

stdin: How about this sequence: WKEIEYEVVRD [CPS1_Y634]
stdout: 0.384

stdin: How about this sequence: ARLDEYIAIAK [RCOR3_Y46_K42R]
stdout: 0.598

stdin: How about this sequence: SEDSEYYKAFE [CASQ2_Y178]
stdout: 0.494

stdin: How about this sequence: NNDLCYWVPEL [IARS1_Y434]
stdout: 4.55

stdin: How about this sequence: EFNINYNNEPP [THG1L_Y228_L232P]
stdout: 0.46

stdin: How about this sequence: DPYHVYIKNRV [KCNE3_Y95]
stdout: 0.396

stdin: How about this sequence: DSNLIYSQIWS [FCRL3_Y662_P660L]
stdout: 10

stdin: How about this sequence: GESLTYVSTTF [C1orf162_Y120_A121V]
stdout: 0.538

stdin: How about this sequence: CENNRYGMGTS [PDHA1_Y227]
stdout: 0.397

stdin: How about this sequence: GQDLFYEDEDL [PACS1_Y303]
stdout: 0.746

stdin: How about this sequence: AEMTGYVVTRW [MAPK13_Y182]
stdout: 0.372

stdin: How about this sequence: DDERGYRRVRS [GIGYF2_Y268]
stdout: 0.455

stdin: How about this sequence: VSGIPYSQPKQ [NEU1_Y251_G252S]
stdout: 0.326

stdin: How about this sequence: KRGIDYILRHM [FRMD1_Y225]
stdout: 0.396

stdin: How about this sequence: CSPLLYKVIMS [OR8D4_Y132_R133K]
stdout: 0.6

stdin: How about this sequence: SVVVPYKPPEV [TP53_Y220_E221K]
stdout: 0.517

stdin: How about this sequence: ETLLYYGYRRS [POR_Y564_C566Y]
stdout: 6.93

stdin: How about this sequence: EKFVPYYDLFM [IPO5_Y530]
stdout: 7.26

stdin: How about this sequence: GQAPGYSYTAA [CYCS_Y47]
stdout: 0.438

stdin: How about this sequence: SLIDGYFRLTA [JAK2_Y372_YF]
stdout: 0.429

stdin: How about this sequence: TFRPPYFHRDC [HGD_Y333_N337D_YF]
stdout: 0.424

stdin: How about this sequence: KFFRVYQGQQP [MUTYH_Y494_V490F]
stdout: 0.447

stdin: How about this sequence: LRNIDYHRLDG [ATRX_Y2083_Y2084H]
stdout: 0.379

stdin: How about this sequence: YETDYYRKGGK [INSR_Y1190]
stdout: 0.427

* * *

System: Fer (mouse)
assay_notes: phosphorylation enrichment, bacterial display (enrichment ratio); higher = better substrate or ligand; peptides without Tyr show the background
Class Fulfilled: phosphorylation enrichment at least 0.7. Class Not fulfilled: phosphorylation enrichment below 0.7.

stdin: Is the recorded value of phosphorylation enrichment equal to or greater than 0.7 for this sequence? ERNARYRTPKI [PTK2B_Y699]
stdout: Not fulfilled

stdin: How about this sequence: FEDTLYTVLHR [UNC13D_Y61_A59T_YF]
stdout: Fulfilled

stdin: How about this sequence: AGREIYESEKC [TTN_Y4424_D4427E]
stdout: Not fulfilled

stdin: How about this sequence: DDERGYRRVRS [GIGYF2_Y268]
stdout: Not fulfilled

stdin: How about this sequence: GTYEDYVEGLR [MYL6_Y89]
stdout: Not fulfilled

stdin: How about this sequence: FFLGKYLQEVL [KLB_Y910_YF]
stdout: Not fulfilled

stdin: How about this sequence: YSTPPYLLEAA [BRIP1_Y921_S919P]
stdout: Fulfilled

stdin: How about this sequence: CEDGNYSPEIS [PTDSS1_Y424_T423N]
stdout: Not fulfilled

stdin: How about this sequence: IYHLSYHHNCE [PDE6B_Y227_L228H]
stdout: Not fulfilled

stdin: How about this sequence: VRFMADTDETF [F8_Y450_Y450D]
stdout: Not fulfilled

stdin: How about this sequence: LEGAKYVSHGA [ASS1_Y113_R108L]
stdout: Fulfilled

stdin: How about this sequence: IFETDYFQKGG [INSR_Y1189_R1191Q_YF]
stdout: Not fulfilled

stdin: How about this sequence: LLANAYIYDVQ [L1CAM_Y418_V421D]
stdout: Fulfilled

stdin: How about this sequence: EEEFEYMNRRR [ERBB3_Y1199_D1194E_YF]
stdout: Not fulfilled

stdin: How about this sequence: PLDGEYLTLQI [TP53_Y327_F328L]
stdout: Fulfilled

stdin: How about this sequence: EASEQYLTKAS [NRCAM_Y739]
stdout: Not fulfilled

stdin: How about this sequence: EPTPSYEVGQR [TSC2_Y1788_G1787S]
stdout: Not fulfilled

stdin: How about this sequence: IHFAIYFLKFS [ARMC9_Y107_L108F_YF]
stdout: Not fulfilled

stdin: How about this sequence: AAFNKYDQERF [CDC73_Y293_R292K_YF]
stdout: Not fulfilled

stdin: How about this sequence: SLAARYYNWVS [FLT4_Y1230]
stdout: Fulfilled

stdin: How about this sequence: LERFIYNPEEF [HLA-DPB1_Y59_R61P_YF]
stdout: Fulfilled

stdin: How about this sequence: LAAPKYKLNVD [SMARCA2_Y1190_A1188P]
stdout: Not fulfilled

stdin: How about this sequence: KGSEGYLAATF [NF1_Y2503_YF]
stdout: Not fulfilled

stdin: How about this sequence: ELAINYQEQAS [SLC9A9_Y591]
stdout: Not fulfilled

stdin: How about this sequence: GFSRHCEDGFP [CTNND1_Y217_Y217C_YF]
stdout: Not fulfilled
